From: PubChem BioAssay (NCI)

- Tested on: UO-31 renal
- Experimental protocol: NCI-60 one-dose screen, 48 h (100 = growth as untreated, 0 = no growth, -100 = all killed)
- Condition details: 10 µM unless noted
The panel holds about 83,000 compounds, 20% with a hit somewhere; the sample as a whole holds those more often.

[
  {
    "Compound": "CC1CCCC(C[N+](C)(C)C)C1=O (configuration not stated)",
    "growth / %": 73.5
  },
  {
    "Compound": "CCN1C(=O)C(=C/C=C/c2ccccc2)C(=O)N(CC)C1=O",
    "growth / %": 70.1
  },
  {
    "Compound": "O=P(Oc1ccc(Cl)cc1)(N1CC1)N1CC1",
    "growth / %": 61.1
  },
  {
    "Compound": "O=[N+]([O-])c1ccc(OP(=O)(CCl)N(CCCl)CCCl)cc1 (configuration not stated)",
    "growth / %": 84.4
  },
  {
    "Compound": "OCCNC(Cc1ccccc1)c1ccc2c(c1)OCO2 (configuration not stated)",
    "growth / %": 78.9
  },
  {
    "Compound": "CO[C@H](C(=O)O)[C@@H]1Cc2cc3cc(OC4CC(OC5CC(O)C(O)C(C)O5)C(O)C(C)O4)c(C)c(O)c3c(O)c2C(=O)[C@H]1OC1CC(OC2CC(OC3CC(C)(O)C(O)C(C)O3)C(O)C(C)O2)C(O)C(C)O1 (some centres not stated)",
    "growth / %": 8.85
  },
  {
    "Compound": "CCOP(=O)(NC[C@H]1O[C@](O)(CO)[C@@H](O)[C@@H]1O)OCC",
    "growth / %": 69.9
  },
  {
    "Compound": "Nc1c(F)cc(-c2nc3cc(F)ccc3[se]2)cc1Br",
    "growth / %": 60.1
  },
  {
    "Compound": "COP(=S)(N1CC1)N1CC1",
    "growth / %": 84.3
  },
  {
    "Compound": "[Au+].[N-]=C=O.c1ccc(CN2[CH-]N(Cc3ccccc3)C(c3ccccc3)=C2c2ccccc2)cc1",
    "growth / %": 74.5
  },
  {
    "Compound": "O=C1CN=C(c2ccc(Cl)cc2)c2sccc2N1",
    "growth / %": 84.6
  },
  {
    "Compound": "COC(=O)[C@@H](C)C[C@H](Cc1ccccc1)NC(=O)c1csc([C@@H](C[C@H](C(C)C)N(C)C(=O)[C@@H](NC(=O)C23CC(NC(C)=O)(C2)C3)C2CC2)OC(C)=O)n1",
    "growth / %": 95.4
  },
  {
    "Compound": "O=C1OCCC1Br (configuration not stated)",
    "growth / %": 96.4
  },
  {
    "Compound": "CC[CH2][Sn]([Cl])([Cl])[CH2]CC",
    "growth / %": 76.6
  },
  {
    "Compound": "CN(C)C(=O)Oc1ccccc1",
    "growth / %": 103
  },
  {
    "Compound": "CCOP(=O)(Cc1ccc(C#N)cc1)OCC",
    "growth / %": 99.2
  },
  {
    "Compound": "O=C1CCC2(O)[C@@H]3Cc4ccc(O)c5c4[C@]2(CCN3Cc2ccoc2)C1O5 (some centres not stated)",
    "growth / %": 78.8
  },
  {
    "Compound": "Cc1ccc(S(=O)(=O)F)cc1C(=O)O",
    "growth / %": 91.9
  },
  {
    "Compound": "Clc1cccc(NCOOC2(OOCNc3cccc(Cl)c3)CCCCC2)c1",
    "growth / %": -73.7
  },
  {
    "Compound": "Cc1cc(C)c(CBr)c(C)c1",
    "growth / %": 85.2
  },
  {
    "Compound": "COC(=O)[C@H](Cc1ccccc1)NC(=O)c1csc([C@@H](C[C@H](C(C)C)N(C)C(=O)[C@@H](NC(=O)[C@H]2CCCCN2C)C2CC2)OC(C)=O)n1",
    "growth / %": 35.9
  },
  {
    "Compound": "COC(=O)C12CC(NC(=O)c3csc([C@@H](C[C@H](C(C)C)N(C)C(=O)[C@@H](NC(=O)[C@H]4CCCCN4C)C4CC4)OC(C)=O)n3)(C1)C2",
    "growth / %": 48.5
  },
  {
    "Compound": "Clc1ccc(COC(Cn2ccnc2)c2ccc(Cl)cc2Cl)cc1 (configuration not stated)",
    "growth / %": 20.7
  },
  {
    "Compound": "CC[C@H](C)[C@@H]([C@@H](CC(=O)N1CCC[C@H]1[C@H](OC)[C@@H](C)C(=O)N[C@H](C)[C@@H](O)c1ccccc1)OC)N(C)C(=O)[C@@H](NC(=O)[C@@H](NC)C(C)C)C(C)C",
    "growth / %": 40.6
  },
  {
    "Compound": "CN(C)C1C(=O)C(C(N)=O)=C(O)C2(O)C(=O)C3=C(O)c4c(O)cccc4C(C)(O)C3CC12.[Cl][Sb]([Cl])[Cl] (configuration not stated)",
    "growth / %": 54.7
  },
  {
    "Compound": "CC(=O)Oc1ccccc1C(=O)NCCC[Se]C#N",
    "growth / %": -37.8
  },
  {
    "Compound": "COc1ccc2c(c1)c(C1(O)CC(CSC#N)OC1=O)cn2C(=O)c1ccc(Cl)cc1 (configuration not stated)",
    "growth / %": 78.5
  },
  {
    "Compound": "CNC(=O)Oc1cccc(C(F)(F)F)c1",
    "growth / %": 96.3
  },
  {
    "Compound": "CCOC(=O)[C@@H](C)C[C@H](Cc1ccccc1)NC(=O)c1csc([C@@H](C[C@H](C(C)C)N(C)C(=O)[C@@H](NC(=O)[C@H]2CCCCN2C)C(C)(C)C)OC(C)=O)n1",
    "growth / %": 20.6
  },
  {
    "Compound": "Cc1sc2c(c1C)C(c1ccc(Cl)cc1)=N[C@@H](CC(=O)OC(C)(C)C)c1nnc(C)n1-2",
    "growth / %": 13.4
  },
  {
    "Compound": "CCOC(=O)CCN(C)C1=Nc2ccc(Cl)cc2C(c2ccccc2)=[N+]([O-])C1",
    "growth / %": 78.6
  },
  {
    "Compound": "COC[C@@H]1C[C@@]2(C)[C@@H](CC[C@@H]3[C@@H]2CC[C@@]2(C)[C@H]3CC[C@]2(C)O)CC1=O",
    "growth / %": 91.1
  },
  {
    "Compound": "CNC12C3C4C1C1C2C3C41C(=O)N[C@H](C(=O)N(C)[C@H](C[C@@H](OC(C)=O)c1nc(C(=O)N[C@@H](Cc2ccccc2)C[C@H](C)C(=O)OC)cs1)C(C)C)C1CC1 (some centres not stated)",
    "growth / %": 36.3
  },
  {
    "Compound": "Nc1ccc2c(c1)oc1ccccc12",
    "growth / %": 69.3
  },
  {
    "Compound": "CN1CCC(c2c[nH]c3ccccc23)C1 (configuration not stated)",
    "growth / %": 69.1
  },
  {
    "Compound": "COC(=O)[C@@H](C)C[C@H](Cc1ccccc1)NC(=O)c1csc([C@@H](C[C@H](C(C)C)N(C)C(=O)[C@@H](NC(=O)[C@H]2CCCCN2C)C(C(F)(F)F)C(F)(F)F)OC(C)=O)n1",
    "growth / %": 33.1
  },
  {
    "Compound": "C=COC(=O)CCN1CC1",
    "growth / %": 90.6
  }
]
